Give IC50 for every item shown.
assay-system: RORγt ligand-binding domain (RORγt-LBD) (Homo sapiens)
Construct: 20 nM recombinantly expressed RORγ-LBD fused to GST
Sequence (P51449 269-508 limits assumed): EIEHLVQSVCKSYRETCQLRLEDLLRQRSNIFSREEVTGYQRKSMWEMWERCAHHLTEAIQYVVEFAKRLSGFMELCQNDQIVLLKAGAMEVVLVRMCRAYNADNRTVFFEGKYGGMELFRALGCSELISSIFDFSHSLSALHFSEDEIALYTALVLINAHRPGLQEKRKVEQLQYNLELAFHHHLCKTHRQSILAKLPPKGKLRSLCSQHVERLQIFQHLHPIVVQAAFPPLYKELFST
test-summary: Time-resolved FRET (TR-FRET) RORγt coactivator assay
study-conditions: GST-RORγ-LBD, biotinylated RIP140 peptide, coactivator displacement

>  <molecule>
CCOC(=O)CCc1n[nH]c2ccc(CC(=O)NC(c3ccccc3)c3ccc(C)cc3OC(C)C)cc12 (stereo not drawn) [Cpd. 159]

>  <IC50>
< 1000 nM

$$$$
>  <molecule>
CC(C)(C)OC(=O)CCc1c[nH]c2ccc(CC(=O)NC(c3ccccc3)c3cc(Br)ccc3N3CCCC3)cc12 (stereo not drawn) [Cpd. 116]

>  <IC50>
1000 to 10000 nM

$$$$
>  <molecule>
Cc1ncc(C(NC(=O)Cc2ccc3[nH]cc(CCC(=O)O)c3c2)c2ccccc2N2CCCCC2)s1 (stereo not drawn) [compound 156]

>  <IC50>
1000 to 10000 nM

$$$$
>  <molecule>
Nc1ccccc1C(NC(=O)Cc1ccc2[nH]cc(CCC(=O)O)c2c1)c1ccccc1 (stereo not drawn) [compound 52]

>  <IC50>
1000 to 10000 nM

$$$$
>  <molecule>
CN(C)Cc1ccccc1C(NC(=O)Cc1ccc2[nH]cc(CCC(=O)O)c2c1)c1ccccc1 (stereo not drawn) [Cpd. 122]

>  <IC50>
< 1000 nM

$$$$

Provide the reported IC50 of each entry below, same order.
1. Cc1ccc(C(NC(=O)Cc2ccc3[nH]cc(CCC(=O)O)c3c2)c2ccccc2)c(N2CCCC2)n1 (stereo not drawn) [Cpd. 15]
2. O=C(O)Cc1c[nH]c2ccc(CC(=O)NC(c3ccccc3)c3ccc(C(F)(F)F)cc3N3CCCC3)cc12 (stereo not drawn) [compound 89]
3. CC(C)(C)OC(=O)CCc1c[nH]c2ccc(CC(=O)NC(c3ccccc3)c3ccc(Cl)cc3N3CCCC3)cc12 (stereo not drawn) [Cpd. 90]
4. Cc1cc(F)ccc1C(NC(=O)Cc1ccc2[nH]cc(CCC(=O)OC(C)(C)C)c2c1)c1ccccc1 (stereo not drawn) [Cpd. 45]

Ans:
< 1000 nM
< 1000 nM
< 1000 nM
10000 to 30000 nM

src = patent US9902725B2
